TARGET OF ASSAY: recombinant renin in human plasma (Homo sapiens)
ASSAY REMARKS: Inhibition of renin in human plasma (QFRET, plasma)
CONDITIONS: human EDTA plasma with 1 nM recombinant renin added; 37° C., 1 hour
Protocol: Inhibition of Renin in Human Plasma Human EDTA-collected plasma is rapidly thawed in warm water and centrifuged at 2900 g for 15 minutes at 4° C. The supernatant is collected and recombinant renin (Proteos) is added at a final concentration of 1 nM. […] The plate is read in a SpectraMax Gemini EM reader set at an excitation wavelength of 490 nm and an emission wavelength of 520 nm at times 0 and 1 hour. Background fluorescence at t=0 is subtracted from the measurement at t=1 hour. […]
Records here are stratified by IC50; strata: lo: < 2 nM; mid: ≥ 2 nM and < 40 nM; hi: ≥ 40 nM

Illustrative cases are given below, each with its answer.
{"MOLECULE": "O=C(CO)NCCc1ccccc1-c1onc([C@H]2CNCC[C@]2(O)c2ccc(F)c(F)c2)c1Br", "ASSIGNED CLASS": "lo"}
{"MOLECULE": "CC(=O)NCCc1ccccc1-c1onc([C@H]2CNCC[C@]2(O)c2ccc(F)c(F)c2)c1Cl", "ASSIGNED CLASS": "lo"}
{"MOLECULE": "CC(O)c1c([C@H]2CNCC[C@]2(O)c2ccc(F)c(F)c2)noc1-c1c(Cl)cccc1Cl (stereo partly drawn)", "ASSIGNED CLASS": "mid"}
{"MOLECULE": "CO[C@]1(c2ccc(F)c(F)c2)CCNC[C@@H]1c1noc(-c2ccccc2CCNC(C)=O)c1Br", "ASSIGNED CLASS": "lo"}
{"MOLECULE": "Cc1cc(-c2ccccc2CCNC(=O)CC(F)(F)F)ccc1[C@H]1CNCC[C@@H]1c1cc(F)cc(F)c1 (racemic)", "ASSIGNED CLASS": "hi"}
{"MOLECULE": "CCOC(=O)NCCc1ccccc1-c1ccc([C@H]2CNCC[C@@H]2c2ccn(C)c(=O)c2)c(Cl)c1 (racemic)", "ASSIGNED CLASS": "mid"}
{"MOLECULE": "COCCCc1cc(OCCOC)ccc1-c1ccc([C@H]2CNCC[C@@H]2c2cccnc2)c(C)c1 (racemic)", "ASSIGNED CLASS": "hi"}
{"MOLECULE": "Cc1cccc(-c2noc([C@H]3CNCC[C@]3(O)c3ccc(F)c(F)c3)c2Br)c1C", "ASSIGNED CLASS": "mid"}

Task: Band assignment needed for `O[C@]1(c2ccc(F)c(F)c2)CCNC[C@@H]1c1cc(-c2c(Cl)cccc2Cl)no1` please.
Output: hi

###

TARGET OF ASSAY: Human recombinant renin (Homo sapiens, UniProt P00797)
Sequence (P00797 67-406): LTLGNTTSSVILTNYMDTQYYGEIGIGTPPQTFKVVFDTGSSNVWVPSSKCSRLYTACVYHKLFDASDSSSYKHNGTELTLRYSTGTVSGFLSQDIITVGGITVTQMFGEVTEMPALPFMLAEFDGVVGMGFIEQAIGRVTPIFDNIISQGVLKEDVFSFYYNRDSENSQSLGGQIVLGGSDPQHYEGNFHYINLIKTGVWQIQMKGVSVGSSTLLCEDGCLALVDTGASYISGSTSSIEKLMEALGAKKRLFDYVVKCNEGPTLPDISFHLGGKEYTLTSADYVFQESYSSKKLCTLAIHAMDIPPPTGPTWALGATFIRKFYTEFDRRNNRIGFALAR
ASSAY REMARKS: Inhibition of human recombinant renin (QFRET, buffer)
CONDITIONS: buffer: 50 mM MOPS pH 7.4, 100 mM NaCl, 0.002% Tween 20; 37° C., 3 hours
RECORDED ENDPOINT: IC50 (nM)
Report the value in nM with no unit label.

Example results:
{"COMPOUND": "CC(=O)NCCc1cc(F)ccc1-c1onc([C@H]2CNCC[C@]2(O)c2ccc(F)c(F)c2)c1Br [Structure 86]", "MEASURED VALUE": 0.14}
{"COMPOUND": "CCC(=O)NCCc1ccccc1-c1ccc([C@H]2CNCC[C@@H]2c2ccn(C)c(=O)c2)c(Cl)c1 (racemic) [Structure 61]", "MEASURED VALUE": 6.2}

Task: Name the reported IC50 value associated with the compound COCCCc1ccccc1-c1ccc([C@H]2CNCC[C@@H]2c2cccnc2N)c(Cl)c1 (racemic) [Structure 53]
Output: 12

Task: Name the reported IC50 value associated with the compound CC(=O)NCCc1ccccc1-c1ccc([C@H]2CNCC[C@@H]2c2cc(F)cc(F)c2)c(C)c1 (racemic) [Structure 15]
Output: 1.6
